System: HBL-100
measurement.notes: Cytotoxicity against human HBL100 cells after 72 hrs by MTT assay
Assay type: functional, cell-based
particulars: HBL-100, 72 h
measured.metric: IC50

mol_smiles=C=C(C)[C@@H]1CC[C@]2(C(=O)O)CC[C@]3(C)[C@H](CC[C@@H]4[C@@]5(C)Cc6c([nH]c7ccc(F)cc67)C(C)(C)[C@@H]5CC[C@]43C)[C@@H]12 experimental_system=HBL-100 reading="> 20 µg/mL"

Lookup: Look up IC50: C=C(C)[C@@H]1CC[C@]2(C(=O)NCC(=O)O)CC[C@]3(C)[C@H](CC[C@@H]4[C@@]5(C)Cc6c([nH]c7ccc(Cl)cc67)C(C)(C)[C@@H]5CC[C@]43C)[C@@H]12
Found: 16.5 µg/mL

Lookup: Look up IC50: C=C(C)[C@@H]1CC[C@]2(C(=O)O)CC[C@]3(C)[C@H](CC[C@@H]4[C@@]5(C)Cc6c([nH]c7cc(Cl)cc(Cl)c67)C(C)(C)[C@@H]5CC[C@]43C)[C@@H]12
Found: > 20 µg/mL

Lookup: Look up IC50: C=C(C)[C@@H]1CC[C@]2(C(=O)O)CC[C@]3(C)[C@H](CC[C@@H]4[C@@]5(C)Cc6c([nH]c7c(Cl)cccc67)C(C)(C)[C@@H]5CC[C@]43C)[C@@H]12
Found: 11.8 µg/mL

Lookup: Look up IC50: C=C(C)[C@@H]1CC[C@]2(C(=O)O)CC[C@]3(C)[C@H](CC[C@@H]4[C@@]5(C)Cc6c([nH]c7ccccc67)C(C)(C)[C@@H]5CC[C@]43C)[C@@H]12
Found: 10.3 µg/mL

---

System: HBL-100
measurement.notes: Cytotoxicity against human HBL100 cells after 72 hrs by MTT assay
Assay type: functional, cell-based
particulars: HBL-100, 72 h
measured.metric: IC50 (µg/mL)
// units = µg/mL; emit number, no label

Example compounds with recorded IC50:
mol_smiles=C=C(C)[C@@H]1CC[C@]2(C(=O)O)CC[C@]3(C)[C@H](CC[C@@H]4[C@@]5(C)Cc6c([nH]c7ccc(OC)cc67)C(C)(C)[C@@H]5CC[C@]43C)[C@@H]12 measured_metric=IC50 reading=12.8
mol_smiles=C=C(C)[C@@H]1CC[C@]2(C(=O)O)CC[C@]3(C)[C@H](CC[C@@H]4[C@@]5(C)Cc6c([nH]c7ccc(Cl)cc67)C(C)(C)[C@@H]5CC[C@]43C)[C@@H]12 measured_metric=IC50 reading=11.8
mol_smiles=CC(C)[C@@H]1CC[C@]2(C(=O)O)CC[C@]3(C)[C@H](CC[C@@H]4[C@@]5(C)Cc6c(n(C)c7ccccc67)C(C)(C)[C@@H]5CC[C@]43C)[C@@H]12 measured_metric=IC50 reading=14.1

Lookup: Look up IC50: C=C(C)[C@@H]1CC[C@]2(C(=O)O)CC[C@]3(C)[C@H](CC[C@@H]4[C@@]5(C)Cc6c([nH]c7c(F)cccc67)C(C)(C)[C@@H]5CC[C@]43C)[C@@H]12
Found: 3.5

Lookup: Look up IC50: C=C(C)[C@@H]1CC[C@]2(C(=O)O)CC[C@]3(C)[C@H](CC[C@@H]4[C@@]5(C)CC[C@H](O)C(C)(C)[C@@H]5CC[C@]43C)[C@@H]12
Found: 5.02

Lookup: Look up IC50: C=C(C)[C@@H]1CC[C@]2(C(=O)O)CC[C@]3(C)[C@H](CC[C@@H]4[C@@]5(C)Cc6c(n(C)c7ccccc67)C(C)(C)[C@@H]5CC[C@]43C)[C@@H]12
Found: 19.5
